target: soluble uPAR (Homo sapiens, UniProt Q03405); settings: 2500.0
Sequence (Q03405 23-305 limits assumed): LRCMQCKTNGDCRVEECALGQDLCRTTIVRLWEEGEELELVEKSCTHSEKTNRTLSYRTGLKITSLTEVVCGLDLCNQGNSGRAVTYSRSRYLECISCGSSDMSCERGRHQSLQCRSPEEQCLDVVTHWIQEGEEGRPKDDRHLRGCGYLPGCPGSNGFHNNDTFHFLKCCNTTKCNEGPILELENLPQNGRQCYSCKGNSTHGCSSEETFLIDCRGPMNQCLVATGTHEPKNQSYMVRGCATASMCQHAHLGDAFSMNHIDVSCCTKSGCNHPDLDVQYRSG
Marks after values point to notes of the source that are not given here. Square brackets hold non-standard residues; d marks the D form. Peptide text beside a SMILES is read from it.
MEASURED_METRIC: % Inhibition 2.5 uM

Given the entry CC(C)C[C@H](NC(=O)[C@H](CCCCN)NC(=O)[C@H](Cc1ccccc1)NC(=O)[C@H](Cc1ccccc1)NC(=O)[C@H](CCC(=O)O)NC(=O)[C@@H](C)N)C(=O)NCC(=O)N1CCC[C@H]1C(=O)N[C@@H](CC(N)=O)C(=O)NCC(=O)N[C@@H](Cc1ccc(O)cc1)C(=O)N[C@H](C(=O)N[C@@H](Cc1ccc(O)cc1)C(=O)N[C@@H](CC(C)C)C(=O)N[C@@H](Cc1c[nH]cn1)C(=O)N[C@@H](CO)C(=O)N[C@@H](C)C(N)=O)C(C)C [Analog 82] (H-[dA]EFFKLGPNGYVYLHSA-NH2) , report its measured % Inhibition 2.5 uM.
24* %
